target under test: human cathepsin S (CatS) (Homo sapiens (Human), UniProt P25774)
Sequence (P25774 115-331): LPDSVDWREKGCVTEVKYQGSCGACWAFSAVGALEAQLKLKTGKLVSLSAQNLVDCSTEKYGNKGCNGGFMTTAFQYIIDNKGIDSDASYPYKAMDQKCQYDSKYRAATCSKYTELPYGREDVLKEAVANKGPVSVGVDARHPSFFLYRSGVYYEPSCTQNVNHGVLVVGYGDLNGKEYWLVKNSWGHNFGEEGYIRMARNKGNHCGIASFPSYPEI
measurement notes: CatS functional enzyme assay
Type: biochemical
setup conditions: recombinant human CatS, substrate Z-VVR-AMC 5 μM, pH 6.5; Ki by Cheng Prusoff equation; read-out: hCatS, Ki
endpoint label: Ki (nM)

A: O=C(N[C@H](C(=O)N1C[C@H](Cl)[C@H]2OCC(=O)[C@H]21)C1CCCCC1)c1ccc(-c2ccnnc2)o1 [Example 19]
B: Cc1ncc(-c2ccc(C(=O)N[C@H](C(=O)N3C[C@H](Cl)[C@H]4OCC(=O)[C@H]43)C3CCCCC3)s2)c(C)n1 [Example 81]
C: O=C(N[C@H](C(=O)N1C[C@H](Cl)[C@H]2OCC(=O)[C@H]21)C1CCCCC1)c1ccc(-c2cnccn2)o1 [Example 25]
Ask: Reorder the list above by recorded Ki in ascending order. Lab note: final answer is the ordered label list.
Reply: A, B, C
(A: 74 nM, B: 133 nM, C: 833 nM)

* * *

target under test: human cathepsin S (CatS) (Homo sapiens (Human), UniProt P25774)
measurement notes: CatS functional enzyme assay
Format: biochemical
setup conditions: recombinant human CatS, substrate Z-VVR-AMC 5 μM, pH 6.5; Ki by Cheng Prusoff equation; read-out: hCatS, Ki
pKi: −log10 of the molar value.
endpoint label: pKi

P: O=C(N[C@H](C(=O)N1C[C@H](Cl)[C@H]2OCC(=O)[C@H]21)C1CCCCC1)c1ncc(-c2cncc(F)c2)s1 [Example 47]
Q: O=C(N[C@H](C(=O)N1C[C@H](Cl)[C@H]2OCC(=O)[C@H]21)C1CCCCC1)c1ncc(-c2ccccn2)s1 [Example 46]
Ask: Out of P and Q , name the one with the higher pKi. When you have decided, please share the label of that item.
Reply: P

* * *

target under test: UniProt:P43235
Sequence (P43235 115-329): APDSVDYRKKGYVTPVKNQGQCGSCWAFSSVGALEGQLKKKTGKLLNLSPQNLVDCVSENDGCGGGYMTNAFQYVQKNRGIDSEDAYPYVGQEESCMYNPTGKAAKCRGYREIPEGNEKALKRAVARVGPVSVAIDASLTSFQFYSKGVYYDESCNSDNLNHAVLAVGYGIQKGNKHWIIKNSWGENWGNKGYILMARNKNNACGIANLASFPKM
measurement notes: CatK functional enzyme assay
setup conditions: recombinant human CatK, substrate Z-FR-AMC 40 μM, pH 5.5; Ki by Cheng Prusoff equation; read-out: hCatK, Ki
endpoint label: Ki (nM)

Recorded Ki, per entry:
# smiles input, target under test, units text, Ki
measured = [
    ("CCc1cc(-c2ccc(C(=O)N[C@H](C(=O)N3C[C@H](Cl)[C@H]4OCC(=O)[C@H]43)C3CCCCC3)s2)ccn1", "UniProt:P43235", "nM", 1),
    ("O=C(N[C@H](C(=O)N1C[C@H](Cl)[C@H]2OCC(=O)[C@H]21)C1CCCCC1)c1cc(F)c(-c2cncnc2)s1", "UniProt:P43235", "nM", 15),
    ("Cc1cc(-c2ccc(C(=O)N[C@H](C(=O)N3C[C@H](Cl)[C@H]4OCC(=O)[C@H]43)C3CCCCC3)s2)ccn1", "UniProt:P43235", "nM", 4),
    ("O=C(N[C@H](C(=O)N1C[C@H](Cl)[C@H]2OCC(=O)[C@H]21)C1CCCCC1)c1ccc(-c2ccnnc2)o1", "UniProt:P43235", "nM", 93),
    ("O=C(N[C@H](C(=O)N1C[C@H](Cl)[C@H]2OCC(=O)[C@H]21)C1CCCCC1)c1ncc(-c2ccccn2)s1", "UniProt:P43235", "nM", 9),
    ("O=C(N[C@H](C(=O)N1C[C@H](Cl)[C@H]2OCC(=O)[C@H]21)C1CCCCC1)c1ncc(-c2cncnc2)s1", "UniProt:P43235", "nM", 22),
]

P: O=C(N[C@H](C(=O)N1C[C@H](Cl)[C@H]2OCC(=O)[C@H]21)C1CCCCC1)c1ncc(-c2ccnc(C3CC3)c2)s1
Q: Cc1cc(-c2cnc(C(=O)N[C@H](C(=O)N3C[C@H](Cl)[C@H]4OCC(=O)[C@H]43)C3CCCCC3)s2)cn[n+]1[O-]
Ask: Could you determine which record has the numerically smaller Ki? Candidates: P and Q API: response body contains the label of the selected item.
Reply: P

a: O=C(N[C@H](C(=O)N1C[C@H](Cl)[C@H]2OCC(=O)[C@H]21)C1CCCCC1)c1ccc(-c2ncncc2F)s1
b: O=C(N[C@H](C(=O)N1C[C@H](Cl)[C@H]2OCC(=O)[C@H]21)C1CCCCC1)c1ncc(-c2cnccn2)s1
Ask: Lab log: flag the item ( a or b ) with the smaller Ki figure. Please indicate the selected item by its label.
Reply: b
